Target: Diacylglycerol kinase alpha (Homo sapiens, UniProt P23743)
Sequence (P23743 whole entry): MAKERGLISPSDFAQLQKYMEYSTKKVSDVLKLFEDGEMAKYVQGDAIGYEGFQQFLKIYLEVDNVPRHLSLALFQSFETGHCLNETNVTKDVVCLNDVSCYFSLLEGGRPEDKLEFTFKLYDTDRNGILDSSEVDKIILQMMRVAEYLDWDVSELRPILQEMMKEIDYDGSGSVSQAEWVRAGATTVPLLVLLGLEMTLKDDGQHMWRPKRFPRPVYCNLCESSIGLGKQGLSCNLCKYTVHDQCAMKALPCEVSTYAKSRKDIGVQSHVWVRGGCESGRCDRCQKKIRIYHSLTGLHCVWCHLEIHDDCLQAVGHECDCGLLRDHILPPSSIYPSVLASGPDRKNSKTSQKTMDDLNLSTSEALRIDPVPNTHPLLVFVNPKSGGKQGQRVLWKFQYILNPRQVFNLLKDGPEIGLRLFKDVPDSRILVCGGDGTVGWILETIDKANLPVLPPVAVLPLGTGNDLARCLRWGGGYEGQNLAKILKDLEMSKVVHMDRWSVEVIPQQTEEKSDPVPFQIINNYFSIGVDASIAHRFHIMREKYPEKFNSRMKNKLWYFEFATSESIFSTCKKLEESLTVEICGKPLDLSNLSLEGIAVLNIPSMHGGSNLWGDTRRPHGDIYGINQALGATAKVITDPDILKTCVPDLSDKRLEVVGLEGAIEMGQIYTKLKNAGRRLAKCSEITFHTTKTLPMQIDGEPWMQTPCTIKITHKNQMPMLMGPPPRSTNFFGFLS
Experiment: Inhibition of OST-tagged DGKalpha (unknown origin) expressed in MDCK cell homogenates assessed as residual activity at 100 uM using DAG as substrate measured after 5 mins in presence of [gamma-32P]ATP by TLC analysis relative to control
Format: cell-free
observable: Activity (%)
Give the number; % is assumed, so skip it.

molSmiles	Activity, %
O=C(NCC(=O)N1CCN(C(c2ccccc2)c2ccccc2)CC1)c1ccco1	68

Inquiry: Indicate its recorded Activity; the compound in question is O=C1CC2(CCCC2)C(=O)N1CN1CCN(C(c2ccccc2)c2ccccc2)CC1
Reply text: 68

Inquiry: Kindly indicate its recorded Activity. Item: O=C(Cc1cn2ccsc2n1)N1CCN(C(c2ccccc2)c2ccccc2)CC1
Reply text: 64

Inquiry: Retrieve Activity measured for O=C(CN1CCN(Cc2ccccc2)CC1)c1c[nH]c2ccccc12 and print it.
Reply text: 72

Inquiry: Answer with the recorded Activity of Cc1nc2sccn2c(=O)c1CCN1CCC(=C(c2ccc(F)cc2)c2ccc(F)cc2)CC1 only.
Reply text: 17

---

Target: Diacylglycerol kinase alpha (Rattus norvegicus)
Sequence (P51556 whole entry): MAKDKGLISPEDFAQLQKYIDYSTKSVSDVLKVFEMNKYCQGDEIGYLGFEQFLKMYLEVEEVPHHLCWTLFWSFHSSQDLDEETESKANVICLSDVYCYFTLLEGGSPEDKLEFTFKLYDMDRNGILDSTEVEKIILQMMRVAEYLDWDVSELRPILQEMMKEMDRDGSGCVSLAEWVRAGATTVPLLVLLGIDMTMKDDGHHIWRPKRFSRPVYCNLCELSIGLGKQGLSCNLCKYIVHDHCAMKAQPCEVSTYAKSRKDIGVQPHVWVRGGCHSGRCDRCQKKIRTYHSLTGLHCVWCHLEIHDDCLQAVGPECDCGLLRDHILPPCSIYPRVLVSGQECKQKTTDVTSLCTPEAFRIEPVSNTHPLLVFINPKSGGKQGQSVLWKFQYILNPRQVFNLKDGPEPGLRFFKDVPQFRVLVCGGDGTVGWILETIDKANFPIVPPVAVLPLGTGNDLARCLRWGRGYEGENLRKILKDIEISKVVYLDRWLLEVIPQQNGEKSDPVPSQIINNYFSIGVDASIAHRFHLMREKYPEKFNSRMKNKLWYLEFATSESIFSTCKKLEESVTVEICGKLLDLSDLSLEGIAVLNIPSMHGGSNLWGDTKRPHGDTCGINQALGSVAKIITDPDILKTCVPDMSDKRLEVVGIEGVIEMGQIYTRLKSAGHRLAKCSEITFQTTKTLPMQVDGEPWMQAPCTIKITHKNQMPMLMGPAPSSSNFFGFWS
Assay: Inhibition of rat FLAG-tagged DGKalpha expressed in HEK293T cells using DAG as substrate measured after 15 mins in presence of [gamma-32P]ATP by scintillation counting method
observable: IC50 (µM)
Answer with a number only, understood to be in µM.

Inquiry: Identify measured IC50 associated with Cc1nc2sccn2c(=O)c1CCN1CCC(=C(c2ccccc2)c2ccc(F)cc2)CC1
Reply text: 20

---

Target: Diacylglycerol kinase alpha (Homo sapiens, UniProt P23743)
Assay: Inhibition of DGKalpha in human erythrocytes using OAG as substrate preincubated for 1 min followed by OAG addition and measured after 8 mins in presence of [gamma-32P]ATP
Assay type: cell-based
observable: pIC50
Conceptually, pIC50 converts a concentration in mol/L into minus its log10.

Inquiry: Give a short answer stating reported pIC50 for Cc1nc2sccn2c(=O)c1CCN1CCC(=C(c2ccccc2)c2ccc(F)cc2)CC1 .
Reply text: 5.42

---

Tested on: Jurkat
Assay: Cytotoxicity against human Jurkat cells assessed as reduction in cell viability at 1 uM after 24 hrs by trypan blue exclusion assay
Assay type: cell-based

molSmiles	Activity
Cc1nc2sccn2c(=O)c1CCN1CCC(=C(c2ccc(F)cc2)c2ccc(F)cc2)CC1	Non-Toxic
O=C(c1ccc(F)cc1)C1CCN(CCn2c(=O)[nH]c3ccccc3c2=O)CC1	Non-Toxic
O=C1/C(=C\C=C\c2ccco2)SC(=S)N1NS(=O)(=O)c1ccccc1	Toxic
Cc1ccc2c(C(=O)CN3CCN(C(=O)c4ccco4)CC3)c(C)[nH]c2c1	Non-Toxic

---

Target: Diacylglycerol kinase alpha (Homo sapiens)
Assay: Inhibition of OST-tagged DGKalpha (unknown origin) expressed in MDCK cell homogenates assessed as residual activity at 100 uM using DAG as substrate measured after 5 mins in presence of [gamma-32P]ATP by TLC analysis relative to control
Assay type: cell-free
observable: Activity (%)
# number only, unit % dropped from output

Example cases with answers are listed next.
molSmiles	Activity [%]
O=C1C(=O)N(C2CCCC2)C(=O)N1CN1CCC(Cc2ccccc2)CC1	50
Cc1ccc2c(C(=O)CN3CCN(C(=O)c4ccco4)CC3)c(C)[nH]c2c1	4
Cc1nc2sccn2c(=O)c1CCN1CCC(=C(c2ccccc2)c2ccc(F)cc2)CC1	27

Inquiry: Dear colleague, please send me the reported Activity for COc1ccccc1N1CCN(CCCNc2cc(=O)n(C)c(=O)n2C)CC1 when you can.
Reply text: 75

Inquiry: Respond only with Activity recorded for O=C(Cn1cnc2sccc2c1=O)N1CCN(C(c2ccccc2)c2ccccc2)CC1
Reply text: 75

Inquiry: Indicate the recorded Activity value for this molecule: O=c1c2ccccc2[nH]c(=S)n1CCCN1CCN(c2cccc(Cl)c2)CC1
Reply text: 39

Inquiry: Tell us which Activity value is on record for O=c1c2ccccc2[nH]c(=S)n1CCN1CCN(Cc2ccccc2)CC1
Reply text: 49

Inquiry: Report Activity for COc1ccccc1CCN1CCC(CN(C)C(=O)C2=CCCCC2)CC1
Reply text: 57

---

Target: Diacylglycerol kinase alpha (Sus scrofa)
Sequence (P20192 whole entry): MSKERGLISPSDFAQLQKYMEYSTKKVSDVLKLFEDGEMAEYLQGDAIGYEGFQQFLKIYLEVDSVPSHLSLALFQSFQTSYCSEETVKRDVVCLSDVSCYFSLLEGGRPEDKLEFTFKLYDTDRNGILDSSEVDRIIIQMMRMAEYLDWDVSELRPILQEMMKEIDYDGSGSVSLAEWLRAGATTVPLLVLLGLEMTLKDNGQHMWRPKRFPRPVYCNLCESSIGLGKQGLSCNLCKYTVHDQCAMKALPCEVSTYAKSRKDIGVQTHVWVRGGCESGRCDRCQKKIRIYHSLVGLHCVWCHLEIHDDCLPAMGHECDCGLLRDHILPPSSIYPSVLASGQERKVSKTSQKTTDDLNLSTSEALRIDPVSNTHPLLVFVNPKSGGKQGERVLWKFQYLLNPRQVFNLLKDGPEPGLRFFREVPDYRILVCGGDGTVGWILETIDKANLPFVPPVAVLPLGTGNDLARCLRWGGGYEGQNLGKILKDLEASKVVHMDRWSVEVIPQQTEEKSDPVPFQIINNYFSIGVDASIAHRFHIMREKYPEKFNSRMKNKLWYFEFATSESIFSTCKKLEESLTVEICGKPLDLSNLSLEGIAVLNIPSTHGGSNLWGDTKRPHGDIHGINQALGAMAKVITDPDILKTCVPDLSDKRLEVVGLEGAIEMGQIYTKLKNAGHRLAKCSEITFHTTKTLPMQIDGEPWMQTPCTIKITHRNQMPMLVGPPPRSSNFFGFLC
Assay: Inhibition of pig FLAG3-tagged DGKalpha expressed in African green monkey COS7 cells using 1,2-dioleoyl-sn-glycerol as substrate measured after 30 mins by ADP-Glo luminescence assay
Here the recorded pIC50 is given for each entry.
pIC50 here: minus log base 10 of the concentration, concentration in moles per litre.

Consider the reported pIC50 for these compounds:
molSmiles	pIC50
O=c1c2ccccc2[nH]c(=S)n1CCN1CCC(=C(c2ccc(F)cc2)c2ccc(F)cc2)CC1	4.74
Cc1nc2sccn2c(=O)c1CCN1CCC(=C(c2ccccc2)c2ccc(F)cc2)CC1	4.60

Inquiry: For the compound O=C1/C(=C\C=C\c2ccco2)SC(=S)N1NS(=O)(=O)c1ccccc1 , give its measured pIC50 value.
Reply text: 6.22

---

Molecular target: Diacylglycerol kinase alpha (Homo sapiens)
Assay: Inhibition of OST-tagged DGKalpha (unknown origin) expressed in MDCK cell homogenates using DAG as substrate measured after 5 mins in presence of [gamma-32P]ATP by TLC analysis
Type: cell-free
This listing pairs molecules with measured pIC50.
Note: pIC50 values are expressed as the negative base-10 logarithm of concentration in M.

molecule	pIC50
Cc1nc2sccn2c(=O)c1CCN1CCC(=C(c2ccc(F)cc2)c2ccc(F)cc2)CC1 [RITANSERIN]	4.78
Cc1ccc2c(C(=O)CN3CCN(C(=O)c4ccco4)CC3)c(C)[nH]c2c1	5.37

Turning now to a further molecule:
Inquiry: Quote pIC50 with test system Diacylglycerol kinase alpha (Homo sapiens) for O=c1c2ccccc2[nH]c(=S)n1CCN1CCC(=C(c2ccc(F)cc2)c2ccc(F)cc2)CC1 [DIACYLGLYCEROL KINASE INHIBITOR II]
Reply text: 4.97

---

# pKi per record follows
Target: Diacylglycerol kinase alpha (Homo sapiens, UniProt P23743)
Test: Inhibition of DGKalpha in human erythrocytes using OAG as substrate preincubated for 1 min followed by OAG addition and measured after 8 mins in presence of [gamma-32P]ATP
Remember the convention: pKi equals -log10 of concentration in molar.

Look over these answered cases.
compound	pKi
C/C=C(\C)[C@@H](OC(C)=O)[C@@H](C)C1=CC(=O)C2=C(O[C@]3(C)CC[C@H]4O[C@@H](C(C)(C)O)CC[C@]4(C)[C@H]3[C@@H]2O)C1=O [STEMPHONE]	5.48
CCCCCCCC(=O)OCCOC(=O)CCCCCCC [ETHYLENE GLYCOL DIOCTANOATE]	4.24

Now look at this one.
Inquiry: Please report pKi for the following compound: CC[C@H](C)[C@@H](OC(C)=O)[C@@H](C)C1=CC(=O)C2=C(O[C@]3(C)CC[C@H]4O[C@@H](C(C)(C)O)CC[C@]4(C)[C@H]3[C@@H]2O)C1=O [COCHLIOQUINONE A]
Reply text: 5.65

---

System: Serotonin (5-HT) receptor
Assay: Antagonist activity at serotonin receptor in human PBMC assessed as inhibition of PMA-stimulated superoxide anion generation at 10 uM preincubated for 1 hr followed by PMA-stimulation and measured after 30 mins by spectrophotometric method
Conditions: 0.5 h

molecule	inhibition (INH)
Cc1nc2sccn2c(=O)c1CCN1CCC(=C(c2ccc(F)cc2)c2ccc(F)cc2)CC1 [RITANSERIN]	Active
O=C(c1ccc(F)cc1)C1CCN(CCn2c(=O)[nH]c3ccccc3c2=O)CC1 [KETANSERIN]	Active
Cc1ccc2c(C(=O)CN3CCN(C(=O)c4ccco4)CC3)c(C)[nH]c2c1	Not Active
O=C1/C(=C\C=C\c2ccco2)SC(=S)N1NS(=O)(=O)c1ccccc1	Not Active

---

Biological target: Diacylglycerol kinase alpha (Homo sapiens, UniProt P23743)
Assay: Inhibition of OST-tagged DGKalpha (unknown origin) expressed in MDCK cell homogenates assessed as residual activity at 100 uM using DAG as substrate measured after 5 mins in presence of [gamma-32P]ATP by TLC analysis relative to control
Assay type: cell-free
observable: Activity (%)
Give just the number in %; leave the unit off.

Observe how each entry below is paired with its result.
compound	observable	valueObserved
COc1ccccc1OCCCN1CCN(C(=O)c2ccc(=O)[nH]n2)CC1	Activity	67
O=C(CCCN1CCC(O)(c2ccc(Cl)cc2)CC1)c1ccc(F)cc1	Activity	62

Inquiry: Give the reported value of Activity for this record: O=c1c2ccccc2[nH]c(=S)n1CCN1CCC(=C(c2ccc(F)cc2)c2ccc(F)cc2)CC1 [DIACYLGLYCEROL KINASE INHIBITOR II]
Reply text: 28
